Molecular target: glutathione-S-transferase (GST) tagged LXRbeta LBD (ligand binding domain) (Homo sapiens, UniProt P55055)
Sequence (P55055 222-460 limits assumed): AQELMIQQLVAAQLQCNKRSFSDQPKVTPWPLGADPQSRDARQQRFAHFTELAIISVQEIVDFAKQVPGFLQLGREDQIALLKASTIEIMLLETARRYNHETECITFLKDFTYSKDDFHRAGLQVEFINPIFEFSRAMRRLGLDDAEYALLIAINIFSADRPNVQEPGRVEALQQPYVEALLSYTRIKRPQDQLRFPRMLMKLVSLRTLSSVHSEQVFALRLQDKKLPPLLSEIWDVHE
Assay: LanthaScreen TR-FRET Liver X Receptor Coactivator Assay, LXR beta-LBD
Settings: potency (Inflection Point) of co-activator recruitment, TR-FRET; read-out: LXR beta IP
Procedure: While running the LanthaScreen™ TR-FRET Liver X Receptor Coactivator Assay, LXR alpha-LBD or LXR beta-LBD was added to ligand test compounds followed by addition of a mixture of a fluorescein-labelled coactivator peptide and terbium-conjugated anti-GST antibody. After an incubation period at room temperature, TR-FRET (time-resolved fluorescence resonance energy transfer) was measured using a filter-based instrument capable of TR-FRET, e.g. PerkinElmer Envision.
METRIC NAME: EC50 (nM)

Some solved entries appear below for comparison.
**Q:** Need EC50, item `CC(C)COC(=O)N1CCN(c2ncc(-c3ccc(C(=O)N(C)C)c(Cl)c3)cc2C#N)CC1`
**A:** 1560

**Q:** Same lookup for `CN(C)C(=O)c1ccc(-c2cnc(N3CCN(C(=O)C4(c5ccccc5)CCCC4)CC3)c(C#N)c2)cc1Cl` , please.
**A:** 43

**Q:** Same lookup for `CCCCC(C)(C)C(=O)N1CCN(c2ncc(-c3ccc(C(=O)N(C)C)c(Cl)c3)cc2C#N)CC1` , please.
**A:** 27

**Q:** Same lookup for `CN(C)C(=O)c1ccc(-c2ccc(N3CCN(C(=O)OC(C)(C)C)CC3)c(C#N)c2)cc1Cl` , please.
**A:** 177

**Q:** Same lookup for `CN(C)C(=O)c1ccc(-c2cnc(N3CCN(C(=O)OCc4ccccc4F)CC3)c(C#N)c2)cc1Cl` , please.
**A:** 21

**Q:** Same lookup for `CN(C)C(=O)c1ccc(-c2cnc(N3CCN(C(=O)[C@](C)(O)C(F)(F)F)CC3)c(C#N)c2)cc1Cl` , please.
**A:** 242

**Q:** Same lookup for `CN(C)C(=O)c1ccc(-c2ccc(N3CCN(C(=O)c4ccccc4Cl)CC3)c(Cl)c2)cc1Cl` , please.
**A:** 98

**Q:** Same lookup for `CC(C)S(=O)(=O)N1CCN(c2ncc(-c3ccc(C(=O)N(C)C)c(Cl)c3)cc2C#N)CC1` , please.
**A:** 437

1. CN(C)C(=O)c1ccc(-c2cnc(N3CCN(S(=O)(=O)c4cccnc4)CC3)c(C#N)c2)cc1Cl
2. CN(CCn1cncn1)C(=O)c1ccc(-c2cnc(N3CCN(C(=O)OC(C)(C)C)CC3)c(C#N)c2)cc1Cl
**Q:** Could you kindly indicate whether 1 or 2 has the higher EC50 value? // output: label of the selected item
**A:** 1

a. CN(CCn1cccn1)C(=O)c1ccc(-c2cnc(N3CCN(C(=O)OC(C)(C)C)CC3)c(C#N)c2)cc1Cl
b. CN(C)C(=O)c1ccc(-c2cc(Cl)c(N3CCN(S(=O)(=O)c4c(Cl)cccc4Cl)CC3)c(Cl)c2)cc1Cl
**Q:** Could you kindly indicate whether a or b has the higher EC50 value? // output: label of the selected item
**A:** a
(a: 282 nM, b: 94 nM)

A. CN(C)C(=O)c1ccc(-c2cnc(N3CCN(S(=O)(=O)C4CCCCC4)CC3)c(C#N)c2)cc1Cl
B. CN(C)C(=O)c1ccc(-c2ccc(N3CCN(S(=O)(=O)c4c(Cl)cccc4Cl)CC3)c(Cl)c2)cc1Cl
**Q:** Could you kindly indicate whether A or B has the higher EC50 value? // output: label of the selected item
**A:** B
(B: 2820 nM, A: 337 nM)

The values you see were collected from patent US10239849B2.
